target-desc: T1, LGR5-Fc fusion protein (human, UniProt O75473 22-564)
T1 construct: range 22-564; Expressed in insect cells with baculovirus, purified on protein A; also called soluble LGR5-Fc; not shown: human Fc
T1 sequence (looked up): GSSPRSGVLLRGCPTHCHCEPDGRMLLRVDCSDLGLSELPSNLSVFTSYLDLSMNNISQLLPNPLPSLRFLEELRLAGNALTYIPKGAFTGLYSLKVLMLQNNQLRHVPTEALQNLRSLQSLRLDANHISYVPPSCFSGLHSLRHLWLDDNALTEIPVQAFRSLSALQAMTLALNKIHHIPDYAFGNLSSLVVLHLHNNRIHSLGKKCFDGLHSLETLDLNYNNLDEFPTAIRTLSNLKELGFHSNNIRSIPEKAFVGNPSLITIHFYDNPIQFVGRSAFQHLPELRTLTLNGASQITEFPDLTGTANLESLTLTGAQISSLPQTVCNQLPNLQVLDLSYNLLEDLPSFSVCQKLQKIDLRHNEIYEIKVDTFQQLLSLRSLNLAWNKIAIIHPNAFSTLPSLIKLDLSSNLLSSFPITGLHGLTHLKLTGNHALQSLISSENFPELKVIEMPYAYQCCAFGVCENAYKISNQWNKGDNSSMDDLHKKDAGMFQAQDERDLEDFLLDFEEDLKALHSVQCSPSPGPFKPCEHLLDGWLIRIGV
test-protocol: SPR (Biacore 2000), RSPO-Fc amine-coupled to CM5 chip, soluble LGR5-Fc injected 100-0.78 nM
pKd: −log10 of the molar value.
experimental-readout: pKd

RSPO2-Fc fusion protein (Fc fusion, Full-length human RSPO2 ligated in-frame to a human Fc region, expressed in insect cells; not shown: human Fc region) QGNRWRRSKRASYVSNPICKGCLSCSKDNGCSRCQQKLFFFLRREGMRQYGECLHSCPSGYYGHRAPDMNRCARCRIENCDSCFSKDFCTKCKVGFYLHRGRCFDECPDGFAPLEETMECVEGCEVGHWSEWGTCSRNNRTCGFKWGLETRTRQIVKKPVKDTIPCPTIAESRRCKMTMRHCPGGKRTPKAKEKRNKKKKRKLIERAQEQHSVFLATDRANQ :: 7.85
